- Test system: mice
- assay method text: Neuropharmacological Assay (SmartCube)
- Type: in vivo
- applied conditions: mice, i.p. 15 min before test, most efficacious dose(s) of 3 doses
measure: AX: anxiolytic (SmartCube probability)

> print(dat)
                                    molecule                                 measure  observed.measurement
 1             CNC[C@@H]1OCCc2ccc3c(c21)COC3  AX: anxiolytic (SmartCube probability)      ++ (5%≤ ++ <25%)
 2               NC[C@H]1OCCc2ccc3c(c21)OCO3  AX: anxiolytic (SmartCube probability)   +++ (25%≤ +++ <50%)
 3                 CNC[C@@H]1OCCc2ccc(F)cc21  AX: anxiolytic (SmartCube probability)      ++ (5%≤ ++ <25%)
 4              CN(C)C[C@@H]1OCCc2cccc(F)c21  AX: anxiolytic (SmartCube probability)   +++ (25%≤ +++ <50%)
 5  NC[C@@H]1OCCc2cccc(F)c21 [Example 35, (R)-(8-fluoroisochroman-1-yl)methanamine]  AX: anxiolytic (SmartCube probability)      ++ (5%≤ ++ <25%)
 6          CNC[C@H]1OC[C@@H](O)c2cccc(F)c21  AX: anxiolytic (SmartCube probability)        + (LOQ≤ + <5%)
 7             CNC[C@@H]1OC[C@H](F)c2ccccc21  AX: anxiolytic (SmartCube probability)      ++ (5%≤ ++ <25%)
 8               CNC[C@@H]1OCCc2cccc(C#N)c21  AX: anxiolytic (SmartCube probability)      ++ (5%≤ ++ <25%)
 9              CNC[C@H]1OCCc2ccc3c(c21)OCC3  AX: anxiolytic (SmartCube probability)      ++ (5%≤ ++ <25%)
10            CNC[C@@H]1OCCc2c1cccc2C(F)(F)F  AX: anxiolytic (SmartCube probability)        + (LOQ≤ + <5%)
11        CNC[C@H]1OCCc2ccc3c(c21)OC(F)(F)O3  AX: anxiolytic (SmartCube probability)      ++ (5%≤ ++ <25%)
12                CNC[C@@H]1OCCCc2cccc(F)c21  AX: anxiolytic (SmartCube probability)      ++ (5%≤ ++ <25%)
13  Cc1cccc2c1[C@@H](CN)OCC2 [Example 74, (S)-(8-methylisochroman-1-yl)methanamine]  AX: anxiolytic (SmartCube probability)      ++ (5%≤ ++ <25%)
14  CNC[C@H]1OC[C@@H](O)c2ccc3c(c21)OCO3 (single isomer, unassigned)  AX: anxiolytic (SmartCube probability)      ++ (5%≤ ++ <25%)
15                 NC[C@H]1OCCc2c1ccc1c2OCO1  AX: anxiolytic (SmartCube probability)        + (LOQ≤ + <5%)
16             CNC[C@@H]1OCCc2ccc3c(c21)OCO3  AX: anxiolytic (SmartCube probability)      ++ (5%≤ ++ <25%)
17              CNC[C@H]1OCCc2ccc3c(c21)CCO3  AX: anxiolytic (SmartCube probability)        + (LOQ≤ + <5%)
18  Cc1cccc2c1CCO[C@H]2CN [Example 73, (R)-(5-methylisochroman-1-yl)methanamine]  AX: anxiolytic (SmartCube probability)      ++ (5%≤ ++ <25%)
19                CNC[C@@H]1OCCc2cc(Cl)ccc21  AX: anxiolytic (SmartCube probability)      ++ (5%≤ ++ <25%)
20                  CNC[C@H]1OCCc2c(C)cccc21  AX: anxiolytic (SmartCube probability)      ++ (5%≤ ++ <25%)
21                 CNC[C@H]1OCCc2c(Cl)cccc21  AX: anxiolytic (SmartCube probability)      ++ (5%≤ ++ <25%)
22       CNC[C@@H]1OCCc2ccc3c(c21)OC(F)(F)O3  AX: anxiolytic (SmartCube probability)      ++ (5%≤ ++ <25%)
23  Cc1cccc2c1[C@H](CN)OCC2 [Example 75, (R)-(8-methylisochroman-1-yl)methanamine]  AX: anxiolytic (SmartCube probability)      ++ (5%≤ ++ <25%)
24              CNC[C@@H]1OCC(C)(C)c2ccccc21  AX: anxiolytic (SmartCube probability)      ++ (5%≤ ++ <25%)
